Data provenance: PubChem BioAssay

Experiment: HepG2 cell viability effects, profiling panel, calcein-AM fluorescence, 48 h, basal (AID 1164); further: test concentration not given here
Conditions: higher = more signal
# cutoff -0.1 applies to z-score; >= gives Fulfilled, < gives Not fulfilled

Recorded results for 3 molecules are shown here.
- MOLECULE: "COc1c(C)cc(-c2cc3c(c(Cc4ccccc4)n2)[Si](C(C)C)(C(C)C)OC3)cc1C"
  GROUP LABEL: "Fulfilled"
- MOLECULE: "C=C(CCCC)C(=O)CC[C@@H](OC(=O)c1cccnc1)c1ccccc1OCCO"
  GROUP LABEL: "Not fulfilled"
- MOLECULE: "C=CCNC(=O)[C@@H]1[C@H]2C(=O)O[C@H](c3ccccc3)[C@H](c3ccccc3)N2[C@H](c2ccc(OCCO)cc2)[C@@]12C(=O)N(C(=O)OCCOC)c1ccc(C#CC3=CCCCC3)cc12"
  GROUP LABEL: "Fulfilled"

QUERY: Determine whether this molecule has z-score no lower than -0.1: `C[C@H]1ON(c2ccc(C(=O)OC(C)(C)C)cc2)[C@@H](c2ccc(O)cc2)[C@@H]1C(=O)N1C(=O)OC[C@@H]1c1ccccc1`
RESULT: Not fulfilled

QUERY: Say whether `C=CCOC(=O)[C@H]1[C@@H]2C(=O)O[C@@H](c3ccccc3)[C@@H](c3ccccc3)N2[C@@H](c2ccc(OCCOC(=O)[C@H]3C[C@H]4C(=O)N[C@@H](Cc5ccccc5)C(=O)N4[C@H]3c3cccc(OCCO)c3)cc2)[C@]12C(=O)Nc1ccc(I)cc12` shows z-score of -0.1 or more.
RESULT: Fulfilled

QUERY: Evaluate `Cc1ccc(S[C@]2(C(=O)NCCN3CCOCC3)CC(=O)N(Cc3ccccc3C(F)(F)F)[C@@H]2c2ccc(CO)cc2I)cc1` : z-score at minimum -0.1?
RESULT: Not fulfilled

QUERY: Test whether the molecule `COC(=O)[C@@]1(Cc2ccccc2)[C@H]2c3cc(C(=O)N4CCCC4)[nH]c3C[C@H]2CN1C(=O)c1ccccc1` records z-score of -0.1 or higher.
RESULT: Not fulfilled

QUERY: Determine whether measured z-score meets or exceeds -0.1 for `O=C1NCC(=O)N2[C@@H]1C[C@@H](C(=O)O)[C@H]2c1ccc(O)cc1`
RESULT: Fulfilled

QUERY: Given `[N-]=[N+]=NCc1ccccc1[C@H]1OC(c2ccc(OCCCO)cc2)=N[C@@]1(CCS(=O)(=O)c1ccccc1)C(N)=O` , state whether its z-score is at least -0.1.
RESULT: Not fulfilled

QUERY: Tell me whether z-score is at least -0.1 here: CCN(CC)c1ccc(N2CC=CC34O[C@@H]5/C=C\CCC(C)OC(=O)C5[C@H]3C(=O)N(CCO)[C@@H]4C2=O)cc1 (some centres undefined)
RESULT: Fulfilled

====

Biological target: Fibroblast growth factor 2 (Homo sapiens)
Assay: FGF2 binders on small-molecule microarrays, primary screen, biochemical, small-molecule microarray, 635/667 nm fluorescence (AID 1133)
Settings: small-molecule microarray binding, FGF2, fluorescence 635/667; higher = more signal
Consider the following molecules and their measured composite z-score readings.
Number only, please.

- MOLECULE: "COC(=O)c1c(CC[C@@H](CO)NC(=O)N[C@H](Cn2cc(-c3ccccc3C)nn2)C(C)C)oc(C(C)=O)c1C(=O)OC"
  MEASUREMENT TARGET: "Fibroblast growth factor 2 (Homo sapiens)"
  composite z-score: -0.37
- MOLECULE: "COc1ccc([Si](C)(C)[C@H]2[C@H](CCn3cc(CCO)nn3)O[C@@]3(C(=O)N(Cc4ccc(N5C(=O)c6cccc7cccc5c67)cc4)c4ccccc43)[C@@H]2C)cc1"
  MEASUREMENT TARGET: "Fibroblast growth factor 2 (Homo sapiens)"
  composite z-score: 0.949
- MOLECULE: "C[C@H]1C2=C3C(CC[C@H]4C(OCc5ccc(F)cc5C(F)(F)F)OC[C@](C)([C@@H]34)N(C(=O)OC(C)(C)C)C2)C(CO)C1CO (some centres not stated)"
  MEASUREMENT TARGET: "Fibroblast growth factor 2 (Homo sapiens)"
  composite z-score: -1.89
- MOLECULE: "C[C@]12C(=O)N(CCCCCCO)[C@@H]3C(=O)N(c4ccc(Cl)cc4)CC=CC31O[C@@H]1/C=C\\CCCOC(=O)C12 (some centres not stated)"
  MEASUREMENT TARGET: "Fibroblast growth factor 2 (Homo sapiens)"
  composite z-score: -1.12
- MOLECULE: "Cc1ccc(F)cc1S(=O)(=O)N[C@@H]1CCN(Cc2ccc(OC(C)C)cc2)C1"
  MEASUREMENT TARGET: "Fibroblast growth factor 2 (Homo sapiens)"
  composite z-score: 0.47
- MOLECULE: "COc1ccc([Si](C)(C)[C@@H]2[C@@H](CCn3cc([C@H](O)c4ccccc4)nn3)O[C@]3(C(=O)N(Cc4ccc(N5CCOC5=O)cc4)c4ccccc43)[C@H]2C)cc1"
  MEASUREMENT TARGET: "Fibroblast growth factor 2 (Homo sapiens)"
  composite z-score: 1.04

QUERY: For the molecule `C=CCOC(=O)[C@H]1[C@@H]2C(=O)O[C@@H](c3ccccc3)[C@@H](c3ccccc3)N2[C@@H](c2ccc(OCCOC(=O)[C@H]3C[C@H]4C(=O)N[C@@H](Cc5ccccc5)C(=O)N4[C@H]3c3ccc(O)cc3)cc2)[C@]12C(=O)Nc1ccc(I)cc12` , give its measured composite z-score value.
RESULT: 1.29
